# EXPERIMENT SUMMARY: qHTS for Inhibitors of the Functional Ribonucleoprotein Complex (vRNP) of Lymphocytic Choriomeningitis Arenaviruses (LCMV): Viability assay - alamar blue signal for LCMV Primary Screen (AID 1347085); further: nearly all actives have a fitted effect of over 80% in size
# SETUP CONDITIONS: alamar blue viability counter-screen, LCMV vRNP screen cells; series mostly up to 57.5 µM
Results filed as inconclusive are left out. Activity calls are given as the source filed them. The call rests on the fitted dose curve; tested in HEK293 reporter line.
PARAMETER MEASURED: Potency

# example entries with known answers
C=C1CC/C=C(\C)CC[C@@H]2[C@@H]1CC2(C)C ... inactive
CC/C=C\CCOC(C)=O ... inactive
CCC(=O)NC[C@H](Cc1ccc(OCCc2nc(-c3ccccc3)oc2C)cc1)NC(C)=CC(=O)c1ccc(C(F)(F)F)cc1 ... inactive
CCCOc1ccc2[nH]cc(C3=CCNCC3)c2n1 ... inactive
CC(C)NC[C@H](O)c1ccc(O)c(O)c1 ... inactive

Consider the molecule Cc1nc(N=Nc2cc(S(=O)(=O)O)c3cc([N+](=O)[O-])cc(S(=O)(=O)O)c3c2)c(COP(=O)(O)O)c(C=O)c1O and give its measured Potency.
inactive

====

# EXPERIMENT SUMMARY: Primary qHTS for Huh7 cytotoxicity: counterscreen for inhibitors of MERS-S pseudotyped particle cell entry (AID 1479147)
# SETUP CONDITIONS: cell viability read-out; at 57.1 µM (top of the series) unless noted; series mostly up to 57.1 µM
Inconclusive results are not listed. Calls of active or inactive are those of the source. The call rests on the fitted dose curve.
PARAMETER MEASURED: outcome

NCCCNCCCCNC(=O)C(O)NC(=O)CCCCCCN=C(N)N (stereo not drawn) ... inactive
CC(/C=C/C=C(\C)C(=O)O[C@@H]1O[C@H](CO[C@@H]2O[C@H](CO)[C@@H](O)[C@H](O)[C@H]2O)[C@@H](O)[C@H](O)[C@H]1O)=C\C=C\C=C(C)\C=C\C=C(/C)C(=O)O[C@@H]1O[C@H](CO[C@@H]2O[C@H](CO)[C@@H](O)[C@H](O)[C@H]2O)[C@@H](O)[C@H](O)[C@H]1O ... inactive
CN(C)CCCN1c2ccccc2CCc2ccccc21 ... inactive

====

# Test system: Zika virus NS2B-NS3 protease (unlinked complex)
# EXPERIMENT SUMMARY: Confirmatory screen GU AMC qHTS for Zika virus inhibitors (AID 1347153); further: nearly all actives have a fitted effect of over 70% in size
# SETUP CONDITIONS: Recombinant NS2B-NS3 protease, AMC substrate fluorescence; series mostly up to 57.1 µM
Inconclusive results are not listed. Activity calls are given as the source filed them. The call rests on the fitted dose curve; in most records, active means well fitted inhibition curve with a large enough effect; inconclusive means small, poorly fitted or top-dose-only effect; inactive means flat fitted curve, though single readings scatter.
Your reply should match one of these outcome classes. yes for active, no for inactive

Solved entries (count: 3):
CC(C)=CCCC1(C)C=Cc2c(O)c3c(c(CC=C(C)C)c2O1)OC12C(=CC4CC1C(C)(C)OC2(C/C=C(/C)C(=O)O)C4O)C3=O (centres undefined) ... yes
Ic1cncc(OC[C@@H]2CCN2)c1 ... no
COc1cc2c(cc1OCC1CCCC1)N([S+](=O)([O-])c1ccc(Oc3ccccc3)cc1)CC21CCN(CC(=O)O)CC1 ... no

Short answer needed: outcome of this test for Clc1cncc(N2CCNCC2)n1 ?
no

====

# System: NIH3T3
# EXPERIMENT SUMMARY: Cytotoxic Profiling of Annotated Libraries Using Quantitative High-Throughput Screening (AID 1296008); further: nearly all actives have a fitted effect of over 60% in size
# SETUP CONDITIONS: Five cell lines viability, CellTiter-Glo ATP luminescence, 48-72 h
Results filed as inconclusive are left out. Activity calls are given as the source filed them. Calls follow the shape of the dose curve; as a rule, active = well fitted inhibition curve with a large enough effect; inconclusive = small, poorly fitted or top-dose-only effect; inactive = flat fitted curve, though single readings scatter.
Your reply should match one of these outcome classes. 1 = active, 0 = inactive

Solved entries (count: 3):
CCCN(CCC)[C@@H]1CCc2ccc3[nH]c(C#N)cc3c2C1 ... 0
C[C@]12CC[C@H](O[C@@H]3O[C@H](CO)[C@@H](O)[C@H](O)[C@H]3O)CC1CC[C@@H]1C2CC[C@]2(C)[C@@H](C3=CC(=O)OC3)CC[C@]12O (stereo partly drawn) ... 0
COc1cc2c(cc1O)C1(C)CCC(O)C(C)(C)C1CC2=O (stereo not drawn) ... 0

Short answer needed: outcome of this test for C=C1[C@@H](C)[C@H]2[C@H](Cc3ccccc3)NC(=O)[C@]23OC(=O)/C=C/C(=O)CCC[C@@H](C)C/C=C/[C@H]3[C@@H]1O ?
1

Short answer needed: outcome of this test for CC(=O)OC[C@]12C[C@H](OC(=O)CC(C)C)C(C)=C[C@H]1O[C@@H]1[C@H](O)[C@@H](O)[C@@]2(C)[C@]12CO2 ?
1

Short answer needed: outcome of this test for C[C@H]1CCC/C=C/C2C[C@H](O)C[C@H]2[C@H](O)/C=C/C(=O)O1 (stereo partly drawn) ?
1

Short answer needed: outcome of this test for CC1=CC(=O)[C@@H](O)[C@]2(C)C3[C@@H](O)[C@@H]4OC(=O)[C@@H]([C@H]4C)[C@]3(C)C(=O)C[C@@H]12 (stereo partly drawn) ?
1

Short answer needed: outcome of this test for Cc1[nH]c2ccc(Cl)cc2c1CCN(C)C ?
0
